// data source = PubChem BioAssay (NCI)

tested on: DU-145 prostate; assay: NCI-60 one-dose screen, 48 h; conditions: 10 µM unless noted
The panel holds about 83,000 compounds, 20% with a hit somewhere; the sample as a whole holds those more often. Active and inactive are the calls of the source. How the source made its calls: active means growth percent below 10; inactive means the rest.
Bench note: report the call from active, inactive

Reference set, count: 4
Molecule: COC(=O)c1c2c(c(C)[n+]([O-])c1C)C(=O)C=C(NCc1ccccc1)C2=O
System Under Test: DU-145 prostate
Class Label: active
--
Molecule: CCCCC1CCc2cccc3c(SCC(=O)N(C)c4ccc(Cl)cc4)cc[n+]1c23 (stereo not drawn)
System Under Test: DU-145 prostate
Class Label: inactive
--
Molecule: CC1=C(C(=O)OCC2CCN(C(=O)OC(C)(C)C)CC2)[C@H](c2cccc(Br)c2)C2=C(CC(C)(C)CC2=O)N1
System Under Test: DU-145 prostate
Class Label: inactive
--
Molecule: NC1C(N)C(N)C1N (stereo not drawn)
System Under Test: DU-145 prostate
Class Label: inactive

Answer briefly: the call reported for O=C1NC(=O)C(=Cc2cn(Cc3cn(Cc4ccc(Cl)cc4Cl)nn3)c3ccccc23)C(=O)N1 in this assay.
inactive

Answer briefly: the call reported for Clc1ccc(Oc2ccc(Nc3ncnc4onc(-c5ccccc5)c34)cc2)c(Cl)c1 in this assay.
inactive

Answer briefly: the call reported for Cc1nn(-c2nc3ccccc3[nH]2)c2c1C(c1ccc(OCC(N)=O)cc1)CC(=O)N2 (stereo not drawn) in this assay.
inactive

Answer briefly: the call reported for O=C(Nc1ccc(N2CCNCC2)cc1)c1[nH]ncc1Nc1cc(C2CC2)ncn1 in this assay.
inactive

* * *

test system: OVCAR-8 ovarian; assay: NCI-60 one-dose screen, 48 h (100 = growth as untreated, 0 = no growth, -100 = all killed); settings: 10 µM unless noted
Compounds without any hit were thinned out: in the full panel of roughly 83,000, 20% have a hit.
Experimental Endpoint: growth (%)
Give the value in % but do not write % after it.

Some entries whose results are on file:
Compound: CCCc1c(C)c2sc(=O)[nH]c2[nH]c1=O
Uom: %
Value Observed: 104

Compound: CCN1C(=O)N(CC)C2C1NN=c1s/c(=C3\C(=O)N(C(C)C)c4ccccc43)c(=O)n12 (configuration not stated)
Uom: %
Value Observed: 12.6

Compound: CCOC(=O)C1=C(C)c2ccc(OC)c(OC)c2C1
Uom: %
Value Observed: 95.7

Short answer for O=C1c2cc(Cl)ccc2Oc2cc([N+](=O)[O-])ccc2N1c1ccc(F)cc1F : growth was 86.8

Short answer for COc1ccc2oc(=O)cc(Cn3cc(Cn4cnc5c4c(=O)n(C)c(=O)n5C)nn3)c2c1 : growth was 106

Short answer for Clc1ncccc1Nc1ccc2nnc(-c3ccncc3)n2n1 : growth was 99.3

Short answer for Cc1ccc2sc3c(NCCCNCCO)nc4ccccc4c3c(=O)c2c1 : growth was 22.4

Short answer for Cn1cc([C@@H]2Nc3ccc4[nH]ncc4c3[C@H]3[C@H]4CCC(C4)[C@H]32)c(C(F)(F)F)n1 : growth was 62.5

Short answer for COc1cc(C#N)cc2[nH]c(=O)oc12 : growth was 112

Short answer for COc1cccc(C2=NN3C(C2)c2ccccc2OC3c2ccc(/C=C3\SC(=O)NC3=O)cc2)c1 (configuration not stated) : growth was 94.8

Short answer for CCOC(=O)c1sc(-c2ccc(OS(=O)(=O)c3ccc(Br)s3)c(C=O)c2)nc1C : growth was 3.64

Short answer for CN(CCc1ccccc1)C(=S)N(C(=O)c1ccc([N+](=O)[O-])cc1)c1ccc(Cl)cc1 : growth was 99.3

* * *

test system: 786-0 renal; assay: NCI-60 one-dose screen, 48 h; conditions: 10 µM unless noted
Compounds without any hit were thinned out: in the full panel of roughly 83,000, 20% have a hit. Active and inactive are the calls of the source. Rule for the calls: active = growth percent below 10; inactive = the rest.
Bench note: report the call from YES = active, NO = inactive

Reference set, count: 10
Molecule: CCCCC1CCc2cccc3c(SCC(=O)N(C)c4ccc(Cl)cc4)cc[n+]1c23 (stereo not given)
Class Label: NO

Molecule: O=C(CN1C(=O)/C(=C\c2ccc(Cl)cc2)SC1=S)Nc1ncc(Cc2ccc(Cl)cc2)s1
Class Label: NO

Molecule: CSc1nc2c(c(=O)[nH]1)N=C1c3ccccc3C(=O)C1C(c1ccccc1)N2 (stereo not given)
Class Label: NO

Molecule: Cn1c2c(c(=O)[nH]c1=O)NC1=C(C(=O)c3ccccc31)C1(C=C(O)c3ccccc31)N2 (stereo not given)
Class Label: NO

Molecule: Clc1ccc(-c2nnc(COc3ccc(C4=NNC(c5ccco5)C4)cc3)o2)cc1 (stereo not given)
Class Label: NO

Molecule: COc1cc(NC(=O)CCSc2nc3ccccc3c(=O)n2Cc2ccccc2)cc(OC)c1OC
Class Label: NO

Molecule: CC(C)c1ccc(S(=O)(=O)NC(=O)NC2CCCC2)cc1
Class Label: NO

Molecule: CCCCCCC(O)(c1ccc(F)cc1)C(CN1CCOCC1)c1ccccc1 (stereo not given)
Class Label: NO

Molecule: CCCCc1c(CCC)c(=N)c2ccccc2n1C
Class Label: NO

Molecule: O=c1oc2ccc(F)cc2c(=O)n1-c1ccc(Br)cc1F
Class Label: YES

Answer briefly: the call reported for O=c1cc(NC2CCN(CCCc3ccccc3)CC2)c2cc(Cl)ccc2o1 in this assay.
NO

Answer briefly: the call reported for CN(C)c1ccc(/C=C/c2ccnc3c(O)cccc23)cc1 in this assay.
YES

Answer briefly: the call reported for Oc1ccc(-c2nc(-c3ccc4oc5ccc(-c6[nH]c(-c7ccc(O)cc7)nc6-c6ccccc6)cc5c4c3)c(-c3ccccc3)[nH]2)cc1 in this assay.
NO

Answer briefly: the call reported for O=c1c2cc(F)ccc2sc2c(NCCN3CCCC3)nc3ccccc3c12 in this assay.
NO

Answer briefly: the call reported for O=C(Nc1ccc(N2CCNCC2)cn1)c1[nH]ncc1Nc1ncnc2sccc12 in this assay.
YES

Answer briefly: the call reported for COc1ccc2sc(N(Cc3cccnc3)C(=O)c3ccc(C#N)cc3)nc2c1 in this assay.
NO

Answer briefly: the call reported for c1ccc2cc3c(Nc4ccc(N5CCOCC5)cc4)ccnc3cc2c1 in this assay.
NO

Answer briefly: the call reported for COc1cc(CNC(=O)Cc2ccccc2)ccc1OCc1cn(-c2ccc(F)cc2)nn1 in this assay.
NO

Answer briefly: the call reported for Cc1ccc(Cc2cnc(NC(=O)CN3C(=O)/C(=C\c4ccccc4)SC3=S)s2)cc1 in this assay.
NO

Answer briefly: the call reported for CC(=O)Nc1nc2c(s1)CCc1c-2cn(S(=O)(=O)c2ccccc2)c1-c1ccccc1 in this assay.
NO

* * *

tested on: SNB-75 CNS; assay: NCI-60 one-dose screen, 48 h; conditions: 10 µM unless noted
About 83,000 compounds went through this panel and 20% of them were active in at least one assay; those are over-represented in the sample as a whole. Activity calls are given as the source filed them. The calls were made as follows: active = growth percent below 10; inactive = the rest.
Bench note: report the call from TRUE for active, FALSE for inactive

Reference set, count: 3
Compound: CCC1=C[C@@H]2CN(C1)Cc1c([nH]c3ccccc13)[C@@](C(=O)OC)(c1cc3c(cc1OC)N(C)[C@H]1[C@@](O)(C(=O)OC)[C@H](OC(C)=O)[C@]4(CC)[C@@H]5C[C@@H]5CN5CC[C@]31[C@@H]54)C2
Class Label: TRUE
//
Compound: NCCCNc1nc2ccccc2c2c(=O)c3cc(F)ccc3sc12
Class Label: FALSE
//
Compound: CN1CCN(Cc2ccc(NC(=O)c3cncc(C#Cc4nc(N)nc5[nH]ncc45)c3)cc2C(F)(F)F)CC1
Class Label: FALSE

Answer briefly: the call reported for Fc1ccc(Oc2ccc(Nc3ncnc4onc(-c5ccccc5)c34)cc2)cc1 in this assay.
FALSE

Answer briefly: the call reported for COc1cc(C(=O)NN=C2c3ccccc3-c3ccccc32)cc(OC)c1OC in this assay.
FALSE

Answer briefly: the call reported for Nc1ccccc1-c1ccc(-c2ccc(Cl)cc2)c2c1[nH]c1ccccc12 in this assay.
FALSE

Answer briefly: the call reported for O=C(Nc1ccc(N2CCNCC2)cc1)c1[nH]ncc1Nc1cc(C2CC2)ncn1 in this assay.
FALSE

Answer briefly: the call reported for O=C1NC(=S)NC(=O)C1=Cc1cn(Cc2cn(Cc3cccc4ccccc34)nn2)c2ccccc12 in this assay.
FALSE

Answer briefly: the call reported for CCOC(=O)C1=C(C)N=c2s/c(=C\c3cc(Cl)ccc3O)c(=O)n2C1c1ccc(OC)cc1 (configuration not stated) in this assay.
FALSE

Answer briefly: the call reported for COc1cc(/C=C/C(=O)c2c(C)nc3ccccc3c2/C=C/c2ccccc2)cc(OC)c1OC in this assay.
FALSE

Answer briefly: the call reported for O=c1c2cc(F)cc(Cl)c2sc2c(Cl)nc3ccccc3c12 in this assay.
FALSE

Answer briefly: the call reported for CC/C(=C(\CC)c1ccc(OCC[N+](C)(C)C)cc1)c1ccc(OC)cc1 in this assay.
FALSE

* * *

tested on: LOX IMVI melanoma; assay: NCI-60 one-dose screen, 48 h (100 = growth as untreated, 0 = no growth, -100 = all killed); details: 10 µM unless noted
This is part of a sample that, as a whole, favours compounds with a hit. Of some 83,000 tested, about 20% had one in any assay.
Experimental Endpoint: growth (%)
Give the value in % but do not write % after it.

Compound: COc1cc(C2C(C#N)=C(N)OC3=C2C(=O)c2ccccc2C3=O)cc(OC)c1OC (centres undefined)
Experimental Endpoint: growth
Value Observed: 27.4

Compound: CC1=NCC2NC(=O)NC(C)=C12 (centres undefined)
Experimental Endpoint: growth
Value Observed: 101

Compound: CCCCCCCCCCCCCCn1cc(C2=C(c3coc4ccc(OC)cc34)C(=O)NC2=O)c2ccccc21
Experimental Endpoint: growth
Value Observed: 101

// next item, growth requested
LOX IMVI melanoma data for Brc1ccc(Oc2ccc(Nc3ncnc4onc(-c5ccccc5)c34)cc2)cc1 ; its growth: 94.5
